Just for reference, ChEMBL document CHEMBL1201862 is where these values come from.

system: Malme-3M; assay: NCI tumour cell line growth inhibition, 48 h
Activity calls are given as the source filed them. No stated cut-off is given here; in the data, active = GI50 up to about 1.1 µM and inactive = higher.
Form field: GI50 (one value per entry).

Query GI50 for CC#CCCCC1(C)CCNC1=S (stereo not given) > 10 µM (inactive)

Query GI50 for O=C(CN1CCN(c2ccccc2)CC1)c1ccc2[nH]c(=O)oc2c1 > 100 µM (inactive)

Query GI50 for Cc1c(C(=O)/C=C/c2c(Cl)cccc2Cl)c(=O)n(-c2ccccc2)n1C 53.8 µM (inactive)

Query GI50 for COc1cc(/C=C\c2cccnc2)cc(OC)c1OC 64.9 µM (inactive)

Query GI50 for CCOC(=O)C(SCCO)C(C(=O)OCC)n1ccc(=O)[nH]c1=O (stereo not given) 12.5 µM (inactive)

###

system: HT-29; experiment: NCI tumour cell line growth inhibition, 48 h
The source made the active and inactive calls. Cut-off read from the data, not from the text of the source: active = GI50 up to about 1.1 µM and inactive = higher.
property: GI50

>>> experimental_result("COc1cc(C[C@H]2C(=O)OC[C@@H]2Cc2ccc(OC)c(OC)c2)cc(OC)c1")
"33.2 µM (inactive)"
>>> experimental_result("COc1ccc2c(c1)O[C@H]1c3ccc(O)cc3OC[C@@H]21")
"34.4 µM (inactive)"
>>> experimental_result("CC/C=C(\\C(=C/CC)[N+](=O)[O-])[N+](=O)[O-]")
"16.4 µM (inactive)"
>>> experimental_result("CC12Nc3c(Cl)cc(Cl)cc3N1C(=O)c1ccccc12 (stereo unspecified)")
"> 100 µM (inactive)"
>>> experimental_result("COC(=O)c1ccc2n[se]nc2c1")
"> 100 µM (inactive)"
>>> experimental_result("CC1=C(C(=O)Nc2ccccc2C)C(c2ccc(Cl)c(Cl)c2)C(C(=O)Nc2ccccc2C)=C(C)N1")
"20 µM (inactive)"

Query GI50 for NC(=O)c1ccccc1NC(=O)C(=O)Nc1n[nH]c(N)n1 > 100 µM (inactive)

Query GI50 for CCC1C(=O)C[C@H]2[C@@H]3C(O)CC4=CC(=O)CC[C@]4(C)[C@H]3CC[C@]12C (stereo partly specified) > 50 µM (inactive)

###

system: OVCAR-4; assay: NCI tumour cell line growth inhibition, 48 h
The source made the active and inactive calls. Rule as the data show it: active = GI50 up to about 1.1 µM and inactive = higher.
property: GI50

>>> experimental_result("C[C@H]1COC(c2ccccn2)=N1")
"> 100 µM (inactive)"
>>> experimental_result("COC(=O)C1(F)C(=O)NC(=O)NC1O (configuration not stated)")
"80 µM (inactive)"
>>> experimental_result("O=C(O)[C@@H]1[C@H](C(=O)O)[C@H](C(=O)O)C[C@@H]1C(=O)O")
"> 100 µM (inactive)"

Lab note: OVCAR-4 assay, enter GI50 for CCNCCCCNCC here > 3750 µM (inactive)

Lab note: OVCAR-4 assay, enter GI50 for CCOC(=O)/C=C1\Oc2ccccc2C1(C)O (configuration not stated) here > 100 µM (inactive)

Lab note: OVCAR-4 assay, enter GI50 for O=c1cc(NCc2ccncc2)[nH]c(=O)[nH]1 here > 100 µM (inactive)

Lab note: OVCAR-4 assay, enter GI50 for CNC1CC(n2cc(C)c(=O)[nH]c2=O)OC1CO (configuration not stated) here > 100 µM (inactive)

Lab note: OVCAR-4 assay, enter GI50 for NC(=O)c1[nH]nc(C2OC(CO)C(O)C2O)c1O (configuration not stated) here 24.7 µM (inactive)

###

system: M14; test: NCI tumour cell line growth inhibition, 48 h
Active and inactive are the calls of the source. No stated cut-off is given here; in the data, active = GI50 up to about 1.1 µM and inactive = higher.
Could you please pick one outcome from this set? True = active, False = inactive

>>> category_label("Cc1ccc(/C=N/Nc2nc3ccccc3s2)s1")
"False"
>>> category_label("C[C@]12CCC(=O)C=C1CC[C@@H]1C2CC[C@]2(C)NC(=O)C(C#N)CC12 (stereo partly drawn)")
"False"
>>> category_label("C[S+](C)CCOC(=O)C(=[N+]=[N-])c1ccc([N+](=O)[O-])cc1")
"False"
>>> category_label("COc1ccc(C(c2ccc(C(C)C)cc(=O)c2O)c2c(O)cc3oc(-c4ccccc4)cc(=O)c3c2O)cc1 (stereo not drawn)")
"False"
>>> category_label("C[As](C)SCC(NC(=O)CCC(N)C(=O)O)C(=O)NCC(=O)O.c1ccncc1 (stereo not drawn)")
"True"

Give the logged outcome of this assay for the following molecule: O=C(NS(=O)(=O)OCC(Cl)(Cl)Cl)SCCC(F)(F)C(F)(F)C(F)(F)C(F)(F)C(F)(F)C(F)(F)F False

Give the logged outcome of this assay for the following molecule: Cc1ccc(N2CN3OC(=O)N(c4ccccc4)[C@@]3(c3ccccc3)C2)cc1 False

Give the logged outcome of this assay for the following molecule: CCn1c(SCC(=O)N/N=C/c2ccccc2)nc2ccccc2c1=O False

###

system: SNB-75; test: NCI tumour cell line growth inhibition, 48 h
Activity calls are given as the source filed them. Cut-off read from the data, not from the text of the source: active = GI50 up to about 1.1 µM and inactive = higher.
Could you please pick one outcome from this set? active, inactive

>>> category_label("Cn1nc(-c2ccccc2)nc1[N+](=O)[O-]")
"inactive"
>>> category_label("CC12CCC3C(CCC4=CC(O)CCC43C=O)C1(O)CCC2c1ccc(=O)oc1 (stereo not drawn)")
"active"
>>> category_label("O=S(=O)(N/C(=N\\O)Nc1ccc(Cl)cc1)c1cc2ccccc2s1")
"inactive"
>>> category_label("COc1cc(C=O)cc(/C=N/c2ccc(S(N)(=O)=O)cc2)c1O")
"inactive"
>>> category_label("CCOC(=O)C(Cl)(NC(=O)c1c(F)c(F)c(F)c(F)c1F)C(F)(F)F (stereo not drawn)")
"inactive"

Give the logged outcome of this assay for the following molecule: CC1C2CC(C(C3C(=O)C4CC3C(C)(C)C4C)C2=O)C1(C)C (stereo not drawn) inactive

Give the logged outcome of this assay for the following molecule: CC(=O)C1(/N=N/c2ccc(S(N)(=O)=O)cc2)CCOC1=O (stereo not drawn) inactive

Give the logged outcome of this assay for the following molecule: O=C(CC/C(C/C(=N/O)c1ccc(F)cc1)=N/O)N(Cc1ccccc1)Cc1ccccc1 inactive

###

test system: HCC 2998; assay: NCI tumour cell line growth inhibition, 48 h
Active and inactive are the calls of the source. Rule as the data show it: active = GI50 up to about 1.1 µM and inactive = higher.
property: GI50

>>> experimental_result("O=C1NC(=O)C(C(=O)C(=O)Nc2cc(Cl)ccc2Cl)C(=O)N1")
"> 100 µM (inactive)"

Query GI50 for COc1ccc(C(c2ccc(C(C)C)cc(=O)c2O)c2c(O)cc3oc(-c4ccccc4)cc(=O)c3c2O)cc1 (configuration not stated) 3.58 µM (inactive)

Query GI50 for N#Cc1ccccc1C(Cl)(Cl)c1cnccn1 32.4 µM (inactive)

Query GI50 for CC1=C(C(=O)Nc2ccccc2C)C(c2ccc(Cl)c(Cl)c2)C(C(=O)Nc2ccccc2C)=C(C)N1 25.6 µM (inactive)

Query GI50 for NCCCCNCCCNC(=O)c1nc(-c2nc(CCN)sc2Cl)sc1Cl > 100 µM (inactive)

Query GI50 for [N-]=[N+]=CC(=O)CCC(NC(=O)C(CCC(=O)C=[N+]=[N-])NC(=O)CCC(N)C(=O)O)C(=O)O (configuration not stated) > 100 µM (inactive)

Query GI50 for CC(C)=C[C@@H]1C[C@H](C)[C@H]2CC[C@H](C)[C@H]3C(=O)C(O)=C(C)C(=O)[C@]123 > 100 µM (inactive)

###

Form field: GI50 (one value per entry).
system: NCI-H522; test: NCI tumour cell line growth inhibition, 48 h
Active and inactive are the calls of the source. Cut-off read from the data, not from the text of the source: active = GI50 up to about 1.1 µM and inactive = higher.

>>> experimental_result("CCCN(CCCN)/[N+]([O-])=N\\O")
"> 100 µM (inactive)"
>>> experimental_result("O=C(NCc1ccccc1Cl)c1c(O)c2ccccc2[nH]c1=O")
"> 100 µM (inactive)"
>>> experimental_result("CC1=CCC2CC1C(C(=O)c1c[nH]c3ccccc13)=NC2(C)C (stereo not given)")
"44.4 µM (inactive)"
>>> experimental_result("CNC1CC(n2cc(C)c(=O)[nH]c2=O)OC1CO (stereo not given)")
"> 100 µM (inactive)"
>>> experimental_result("CN[C@@H](C)[C@@H](NC)c1ccccc1")
"> 100 µM (inactive)"

Query GI50 for COC(=O)C1[C@@H](C(=O)OC)C12C=Cc1ccccc1C=C2 (stereo not given in full) > 100 µM (inactive)

Query GI50 for CC(CO)(CO)N1C(=O)C2C3C=CC(C3)C2C1=O (stereo not given) > 100 µM (inactive)

Query GI50 for Cc1ccc(/C=N/Nc2nc3ccccc3s2)s1 > 100 µM (inactive)

Query GI50 for O=C1C(=O)c2c(oc(=O)c3ccccc23)-c2ccccc21 21.2 µM (inactive)

Query GI50 for Cc1n[nH]c(=O)n1/N=C\CC/C=N\n1c(C)n[nH]c1=O > 100 µM (inactive)

###

Form field: GI50 (one value per entry).
tested on: HCT-116; assay: NCI tumour cell line growth inhibition, 48 h
Calls of active or inactive are those of the source. No stated cut-off is given here; in the data, active = GI50 up to about 1.1 µM and inactive = higher.

>>> experimental_result("O=C(O)c1cc(/N=N/c2ccc([N+](=O)[O-])cc2)ccc1O")
"30.5 µM (inactive)"
>>> experimental_result("CCC(Sc1cc(Cl)c(C)cc1S(=O)(=O)Nc1nc(N)nc(N(C)C)n1)C(=O)O (stereo unspecified)")
"> 10 µM (inactive)"
>>> experimental_result("N#CC12C(=O)N3C(=NC(c4ccccc4)NC3c3ccccc3)C1(C#N)C(c1ccccc1)NC1=C2CCC1 (stereo unspecified)")
"> 100 µM (inactive)"
>>> experimental_result("O=C(NS(=O)(=O)OCC(Cl)(Cl)Cl)SCCC(F)(F)C(F)(F)C(F)(F)C(F)(F)C(F)(F)C(F)(F)F")
"19.8 µM (inactive)"

Query GI50 for CN1N=C(c2ccncc2)OC1c1ccc(Cl)cc1Cl (stereo unspecified) 93.1 µM (inactive)

Query GI50 for BC(=O)NC(CC(C)C)C(=O)NC1c2ccsc2C(=O)C1O.CN(C)C (stereo unspecified) > 100 µM (inactive)
